These entries and their values trace back to the supplement of paper PMC6897291.

Test system: RIVA
assay.info: growth inhibition by drug alone (1 - RLU/untreated control) (fraction); higher = stronger inhibition
applied.conditions: 10 nM; time (day): 4; 177Lu-lilotomab satetraxetan 0 ug/ml
Where a name gives a salt, the structure may show the parent alone.
Threshold rule: growth inhibition by drug alone greater than or equal to 0.01 is Yes; below that, No.

Past entries and their recorded results:
compound: CCN(CC)CCOc1ccc(Nc2ncc3cc(-c4c(Cl)cccc4Cl)c(=O)n(C)c3n2)cc1
qualitative.label: No
--
compound: CCC1=C[C@@H]2CN(C1)Cc1c([nH]c3ccccc13)[C@@](C(=O)OC)(c1cc3c(cc1OC)N(C)[C@H]1[C@@](O)(C(=O)OC)[C@H](OC(C)=O)[C@]4(CC)C=CCN5CC[C@]31[C@@H]54)C2
qualitative.label: Yes

(Q) Decide: is the reported value of growth inhibition by drug alone for CC(C)Oc1cc(Nc2nc(N[C@@H](C)c3ccc(F)cn3)ncc2Cl)n[nH]1 equal to or greater than 0.01?
(A) Yes

(Q) Decide: is the reported value of growth inhibition by drug alone for CNC(=O)c1cc(Oc2ccc(NC(=O)Nc3ccc(Cl)c(C(F)(F)F)c3)c(F)c2)ccn1 equal to or greater than 0.01?
(A) Yes

(Q) Decide: is the reported value of growth inhibition by drug alone for NC(=O)Nc1cc(-c2cccc(F)c2)sc1C(=O)N[C@H]1CCCNC1 equal to or greater than 0.01?
(A) Yes

(Q) Decide: is the reported value of growth inhibition by drug alone for CCOc1ccn(-c2ccc(F)cc2)c(=O)c1C(=O)Nc1ccc(Oc2ccnc(N)c2Cl)c(F)c1 equal to or greater than 0.01?
(A) Yes

(Q) Decide: is the reported value of growth inhibition by drug alone for O=NN(CCCl)C(=O)NC1CCCCC1 equal to or greater than 0.01?
(A) No

(Q) Decide: is the reported value of growth inhibition by drug alone for CNNCc1ccc(C(=O)NC(C)C)cc1 [Procarbazine hydrochloride (Matulane)] equal to or greater than 0.01?
(A) Yes

(Q) Decide: is the reported value of growth inhibition by drug alone for Cc1ccc(C(=O)N(CCCN)[C@@H](c2nc3cc(Cl)ccc3c(=O)n2Cc2ccccc2)C(C)C)cc1 equal to or greater than 0.01?
(A) Yes

(Q) Decide: is the reported value of growth inhibition by drug alone for N#CCNC(=O)c1ccc(-c2ccnc(Nc3ccc(N4CCOCC4)cc3)n2)cc1 equal to or greater than 0.01?
(A) No

---

Test system: U-2932
assay.info: growth inhibition by drug alone (1 - RLU/untreated control) (fraction); higher = stronger inhibition
applied.conditions: 1000 nM; time (day): 3; 177Lu-lilotomab satetraxetan 0 ug/ml
endpoint.label: growth inhibition by drug alone
The response must contain the number and no unit.

molecule: COC(=O)Nc1ccc(-c2nc(N3CCOCC3)c3cnn(C4CCN(C(=O)OC)CC4)c3n2)cc1
subject.of.test: U-2932
growth inhibition by drug alone: 0.454

molecule: Nc1nccc(-c2ccc3noc(-c4ccc(Cl)cc4)c3c2)n1 [PIM-1 Inhibitor 2]
subject.of.test: U-2932
growth inhibition by drug alone: 0.121

molecule: O=c1cc(N2CCOCC2)oc2c(-c3ccccc3)cccc12
subject.of.test: U-2932
growth inhibition by drug alone: 0.0577

molecule: CN1CCN(CCOc2cc(OC3CCOCC3)c3c(Nc4c(Cl)ccc5c4OCO5)ncnc3c2)CC1 [Saracatinib (AZD0530)]
subject.of.test: U-2932
growth inhibition by drug alone: -0.139

Would you kindly look at the next entry?
(Q) What measured growth inhibition by drug alone goes with COc1ccc(C2CC(c3ccccc3)=NN2c2ccc(S(N)(=O)=O)cc2)cc1 (stereo not given) ?
(A) -0.0544
